# test.target: WT Shaker KV channel (ShH4IR) (Drosophila melanogaster, UniProt P08510, DEL6-46)
# Construct: expressed in transfected cells; host or cells: Xenopus laevis oocytes (RNA injection)
# Sequence (P08510 other isoform, or with tags, fused parts or gaps DEL6-46): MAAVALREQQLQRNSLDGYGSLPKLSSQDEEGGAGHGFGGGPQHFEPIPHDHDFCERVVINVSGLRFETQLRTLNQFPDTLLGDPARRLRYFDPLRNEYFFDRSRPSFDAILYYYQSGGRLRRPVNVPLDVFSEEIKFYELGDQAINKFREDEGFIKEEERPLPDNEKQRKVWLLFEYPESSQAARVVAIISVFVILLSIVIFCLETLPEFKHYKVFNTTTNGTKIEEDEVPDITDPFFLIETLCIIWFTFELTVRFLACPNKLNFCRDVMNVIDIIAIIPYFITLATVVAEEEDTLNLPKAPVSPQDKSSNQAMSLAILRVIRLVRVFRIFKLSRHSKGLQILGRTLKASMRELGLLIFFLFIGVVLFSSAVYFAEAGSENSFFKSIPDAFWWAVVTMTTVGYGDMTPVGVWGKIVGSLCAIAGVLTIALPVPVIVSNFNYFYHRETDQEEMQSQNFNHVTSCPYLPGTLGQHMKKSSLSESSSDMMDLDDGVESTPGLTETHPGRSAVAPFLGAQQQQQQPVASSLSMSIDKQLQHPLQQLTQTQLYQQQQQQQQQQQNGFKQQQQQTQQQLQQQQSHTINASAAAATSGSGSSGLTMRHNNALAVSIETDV
# method.summary: Two-electrode voltage clamp of Shaker KV channels expressed in Xenopus laevis oocytes: WT
# Assay type: cell-based
# settings: WT, pH 9.0, concentration-response (Eq. 3); read-out: EC50 of the G(V) shift (apparent affinity)
measured.attribute: EC50 (µM)
Could you give me the number in µM? Just the number is fine.

API: value(readout= EC50, system= WT Shaker KV channel (ShH4IR) (Drosophila melanogaster, UniProt P08510, DEL6-46), query= C[C@@]1(C(=O)O)CCC[C@]2(C)c3cc(Cl)c(Cl)c(Cl)c3CC[C@@H]12 [Wu50] )
29.1

* * *

# test.target: Shaker KV channel M356R/A359R/W454A (Drosophila melanogaster, UniProt P08510, A359R/DEL6-46/M356R/W454A)
# method.summary: Two-electrode voltage clamp in Xenopus oocytes: 2R motif/W454A
measured.attribute: pEC50
To interpret pEC50, take it as minus log10 of a concentration measured in moles per litre.

Quick one: pEC50 of `C[C@@]1(C(=O)O)CCC[C@]2(C)c3cc(Cl)c(Cl)c(Cl)c3CC[C@@H]12` ?
4.55

* * *

# test.target: WT Shaker KV channel (ShH4IR) (Drosophila melanogaster, UniProt P08510, DEL6-46)
# Construct: expressed in transfected cells; host or cells: Xenopus laevis oocytes (RNA injection)
# method.summary: Two-electrode voltage clamp of Shaker KV channels expressed in Xenopus laevis oocytes: WT
# Type: cell-based
# settings: WT, pH 7.4, concentration-response (Eq. 3); read-out: EC50 of the G(V) shift (apparent affinity)
# maps each entry to its pEC50
On this scale, pEC50 is minus log10 of a concentration expressed in M (mol/L).

1. CC(C)c1ccc2c(c1)CC[C@H]1[C@](C)(COS(=O)(=O)O)CCC[C@]21C ... 4.36

Consider now this further compound.
For WT Shaker KV channel (ShH4IR) (Drosophila melanogaster, UniProt P08510, DEL6-46), provide pEC50 of `C[C@@]1(COS(=O)(=O)O)CCC[C@]2(C)c3cc(Cl)c(Cl)c(Cl)c3CC[C@@H]12` please.
5.80

* * *

# test.target: Shaker KV channel with the 2R motif (M356R/A359R) (Drosophila melanogaster, UniProt P08510, A359R/DEL6-46/M356R)
# Construct: expressed in transfected cells; host or cells: Xenopus laevis oocytes (RNA injection)
# Sequence (P08510 other isoform, or with tags, fused parts or gaps DEL6-46/M356R/A359R): as the sequence (P08510 other isoform, or with tags, fused parts or gaps DEL6-46) above, with M315R, A318R counted along it
# method.summary: Two-electrode voltage clamp in Xenopus oocytes: 2R motif channel
# Type: cell-based
# settings: 2R motif, pH 7.4, concentration-response (Eq. 3); read-out: EC50 of the G(V) shift (apparent affinity)
measured.attribute: EC50 (µM)
Write it as a number; the unit µM goes unstated.

Please report the recorded EC50 for `CC(C)c1ccc2c(c1)CC[C@H]1[C@](C)(COS(=O)(=O)O)CCC[C@]21C` .
36.4
